- PROTOCOL NOTES: Half life in ICR mouse at 3 mg/kg, iv measured upto 1440 mins by LC/MS/MS analysis
- Type: ADME, organism-based
- RECORDED CONDITIONS: in vivo
So I've got a bunch of compounds here, and I need their half-life values.
Respond with the bare value in h.

Recorded half-life (compound CCOc1cc2ncnc(Nc3ccc(Oc4cc5nncn5cn4)c(C)c3)c2cc1NC(=O)/C(F)=C/[C@H]1CCCN1C ): 3.76

Recorded half-life (compound CCOc1cc2ncnc(Nc3ccc(Oc4cc5nncn5cn4)c(C)c3)c2cc1NC(=O)/C(F)=C\[C@@H]1CCCN1C ): 1.16

Recorded half-life (compound CCOc1cc2ncnc(Nc3ccc(Oc4cc5nncn5cn4)c(C)c3)c2cc1NC(=O)/C=C/[C@H]1CCCN1C ): 4.38
